experimental-target: DYRK1B (Homo sapiens (Human), UniProt Q9Y463)
Sequence (Q9Y463 whole entry): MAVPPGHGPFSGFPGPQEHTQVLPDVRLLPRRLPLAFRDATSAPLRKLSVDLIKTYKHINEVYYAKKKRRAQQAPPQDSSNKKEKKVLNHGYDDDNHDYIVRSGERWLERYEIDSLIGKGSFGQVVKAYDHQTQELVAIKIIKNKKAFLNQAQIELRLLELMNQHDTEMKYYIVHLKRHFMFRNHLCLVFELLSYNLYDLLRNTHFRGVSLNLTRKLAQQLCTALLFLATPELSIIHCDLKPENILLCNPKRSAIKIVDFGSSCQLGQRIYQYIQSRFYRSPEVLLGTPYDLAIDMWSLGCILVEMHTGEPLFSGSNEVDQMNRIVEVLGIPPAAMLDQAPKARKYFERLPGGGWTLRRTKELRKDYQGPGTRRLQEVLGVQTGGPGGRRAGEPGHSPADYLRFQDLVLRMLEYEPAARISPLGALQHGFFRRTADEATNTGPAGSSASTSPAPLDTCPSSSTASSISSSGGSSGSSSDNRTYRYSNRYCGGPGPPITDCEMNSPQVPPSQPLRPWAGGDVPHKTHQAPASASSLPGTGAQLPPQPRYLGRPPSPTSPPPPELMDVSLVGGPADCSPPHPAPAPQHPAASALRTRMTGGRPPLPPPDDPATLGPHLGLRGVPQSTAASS
protocol-description: DYRK1B kinase assay (HotSpot, Reaction Biology)
Format: biochemical
measurement-conditions: purified recombinant kinase, 10 μM ATP, room temperature 120 min
metric-name: IC50 (nM)
Output spec: scalar in nM, unitless text.

>>> quantitative_readout("CCOC(=N)c1nc2ccc3ncnc(Nc4ccc5c(c4)OCO5)c3c2s1")
7.72
>>> quantitative_readout("COC(=N)c1nc2ccc3ncnc(Nc4cccc(C#N)c4)c3c2s1")
72
>>> quantitative_readout("COC(=N)c1nc2ccc3ncnc(Nc4ccc(F)cc4Br)c3c2s1")
0.24
>>> quantitative_readout("COC(=N)c1nc2ccc3ncnc(Nc4ccc(C(C)(C)C)cc4)c3c2s1")
93.8
>>> quantitative_readout("NC(=O)c1nc2ccc3ncnc(Nc4ccc(F)cc4Br)c3c2s1")
31.5
>>> quantitative_readout("COC(=N)c1nc2ccc3ncnc(Nc4ccc(OC)c(OC)c4)c3c2s1")
161

Please fill in: IC50 reported for COC(=N)c1nc2ccc3ncnc(Nc4ccc(Cl)cc4)c3c2s1 = 4.74

Please fill in: IC50 reported for COC(=N)c1nc2ccc3ncnc(Nc4ccc(C)cc4)c3c2s1 = 2.83

Please fill in: IC50 reported for COC(=N)c1nc2ccc3ncnc(Nc4ccc(C#N)cc4)c3c2s1 = 7.69

Please fill in: IC50 reported for COc1ccc(Nc2ncnc3ccc4nc(C5=NCCO5)sc4c23)cc1 = 18700

Please fill in: IC50 reported for COC(=N)c1nc2ccc3ncnc(Nc4cc(OC)c(OC)c(OC)c4)c3c2s1 = 486

Please fill in: IC50 reported for CCOC(=N)c1nc2ccc3ncnc(Nc4ccc(Br)cc4F)c3c2s1 = 34.4

Please fill in: IC50 reported for COC(=N)c1nc2ccc3ncnc(Nc4ccc(OC)cc4)c3c2s1 = 19.2

Please fill in: IC50 reported for COC(=N)c1nc2ccc3ncnc(Nc4ccc(F)cc4)c3c2s1 = 9.64

----------
experimental-target: DYRK1B (Homo sapiens (Human))
protocol-description: DYRK1B kinase assay (HotSpot, Reaction Biology)
Format: biochemical
Recorded IC50 for the following compounds
Output spec: scalar in nM, unitless text.

>>> quantitative_readout("COC(=N)c1nc2ccc3ncnc(Nc4ccc(Br)cc4F)c3c2s1")
6.55

Then there is this compound:
Please fill in: IC50 reported for CC(C)OC(=N)c1nc2ccc3ncnc(Nc4ccc5c(c4)OCO5)c3c2s1 = 218

----------
experimental-target: DYRK1A (Homo sapiens (Human))
protocol-description: DYRK1A kinase assay (HotSpot, Reaction Biology)
Type: biochemical
measurement-conditions: purified recombinant kinase, 10 μM ATP, room temperature 120 min
Recorded log10 IC50 for the following molecules
Please keep in mind that the values are log10 of IC50 expressed in nM.

>>> quantitative_readout("CN(C)CCNC(=N)c1nc2ccc3ncnc(Nc4ccc5c(c4)OCO5)c3c2s1")
2.63

Then there is this molecule:
Please fill in: log10 IC50 reported for COC(=N)c1nc2ccc3ncnc(Nc4ccc5c(c4)OCCO5)c3c2s1 = 0.90

----------
experimental-target: DYRK1B (Homo sapiens (Human), UniProt Q9Y463)
protocol-description: DYRK1B kinase assay (HotSpot, Reaction Biology)
Format: biochemical
measurement-conditions: purified recombinant kinase, 10 μM ATP, room temperature 120 min
// NB: equality with 10 nM counts as False; only IC50 strictly below is True

Please determine if CCCCOC(=N)c1nc2ccc3ncnc(Nc4ccc(Cl)cc4Cl)c3c2s1 is below 10 nM in terms of IC50.
False

Please determine if N=C(OCc1ccccc1)c1nc2ccc3ncnc(Nc4ccc5c(c4)OCO5)c3c2s1 is below 10 nM in terms of IC50.
False

----------
experimental-target: DYRK1A (Homo sapiens (Human), UniProt Q13627)
protocol-description: DYRK1A kinase assay (HotSpot, Reaction Biology)
Type: biochemical
measurement-conditions: purified recombinant kinase, 10 μM ATP, room temperature 120 min
Recorded IC50 for the following compounds
Output spec: scalar in nM, unitless text.

>>> quantitative_readout("COC(=N)c1nc2ccc3ncnc(Nc4cc(OC)c(OC)c(OC)c4)c3c2s1 [Compound 61]")
436
>>> quantitative_readout("COC(=N)c1nc2ccc3ncnc(Nc4cc(OC)cc(OC)c4)c3c2s1 [Compound 63]")
299
>>> quantitative_readout("CC(C)(C)CNc1ncnc2ccc(-c3ccc4c(c3)OCO4)cc12 [NCGC-00189310, reference compound]")
2.2
>>> quantitative_readout("COC(=N)c1nc2ccc3ncnc(Nc4cccc(Cl)c4)c3c2s1 [Compound 75]")
13.6

Then there is this compound:
Please fill in: IC50 reported for C#Cc1cccc(Nc2ncnc3ccc4nc(C(=N)OC)sc4c23)c1 [Compound 58] = 40.8

----------
Recorded IC50 for the following compounds
experimental-target: DYRK1A (Homo sapiens (Human), UniProt Q13627)
protocol-description: DYRK1A kinase assay (HotSpot, Reaction Biology)
Assay type: biochemical
measurement-conditions: purified recombinant kinase, 10 μM ATP, room temperature 120 min
Output spec: scalar in nM, unitless text.

Please fill in: IC50 reported for COC(=N)c1nc2ccc3ncnc(Nc4cc(Br)c5c(c4)OCO5)c3c2s1 = 2.76

Please fill in: IC50 reported for COC(=N)c1nc2ccc3ncnc(Nc4ccc(C(C)(C)C)cc4)c3c2s1 = 39

Please fill in: IC50 reported for COC(=N)c1nc2ccc3ncnc(Nc4ccc(F)cc4)c3c2s1 = 6.06

Please fill in: IC50 reported for NC(=O)c1nc2ccc3ncnc(Nc4ccc(Cl)cc4Cl)c3c2s1 = 34.9

Please fill in: IC50 reported for COC(=N)c1nc2ccc3ncnc(Nc4ccc(O)c([N+](=O)[O-])c4)c3c2s1 = 4.91

Please fill in: IC50 reported for COC(=N)c1nc2ccc3ncnc(Nc4cccc(C#N)c4)c3c2s1 = 42.7

Please fill in: IC50 reported for COC(=N)c1nc2ccc3ncnc(Nc4ccc(C(F)(F)F)cc4)c3c2s1 = 18.3

----------
experimental-target: DYRK1A (Homo sapiens (Human))
protocol-description: DYRK1A kinase assay (HotSpot, Reaction Biology)
Format: biochemical
measurement-conditions: purified recombinant kinase, 10 μM ATP, room temperature 120 min
metric-name: IC50 (nM)
Output spec: scalar in nM, unitless text.

>>> quantitative_readout("COC(=N)c1nc2ccc3ncnc(Nc4ccc(OC)c([N+](=O)[O-])c4)c3c2s1")
124
>>> quantitative_readout("NC(=O)c1nc2ccc3ncnc(Nc4ccc(F)cc4Br)c3c2s1")
26.2
>>> quantitative_readout("CCCCOC(=N)c1nc2ccc3ncnc(Nc4ccc(Cl)cc4Cl)c3c2s1")
47.5
>>> quantitative_readout("COC(=N)c1nc2ccc3ncnc(Nc4ccc(F)cc4Br)c3c2s1")
0.16
>>> quantitative_readout("COC(=O)c1nc2ccc3ncnc(Nc4ccc(Cl)cc4Cl)c3c2s1")
5.1

Please fill in: IC50 reported for COC(=N)c1nc2ccc3ncnc(Nc4ccc(OC)cc4OC)c3c2s1 = 9.53

Please fill in: IC50 reported for COC(=N)c1nc2ccc3ncnc(Nc4ccc(N(C)C)cc4)c3c2s1 = 35.6

Please fill in: IC50 reported for CCOC(=N)c1nc2ccc3ncnc(Nc4ccc5c(c4)OCO5)c3c2s1 = 6.02

Please fill in: IC50 reported for N=C(OCc1ccccc1)c1nc2ccc3ncnc(Nc4ccc5c(c4)OCO5)c3c2s1 = 33.9

Please fill in: IC50 reported for COC(=N)c1nc2ccc3ncnc(Nc4ccc(Cl)c(Cl)c4)c3c2s1 = 66.8

----------
experimental-target: UniProtKB Q13627
protocol-description: DYRK1A kinase assay (HotSpot, Reaction Biology)
Format: biochemical
measurement-conditions: purified recombinant kinase, 10 μM ATP, room temperature 120 min
Recorded log10(IC50) for the following compounds
Please keep in mind that the values are log10 of IC50 expressed in nM.

>>> quantitative_readout("COC(=N)c1nc2ccc3ncnc(Nc4ccc(OC)cc4)c3c2s1")
1.12

Then there is this compound:
Please fill in: log10(IC50) reported for COC(=N)c1nc2ccc3ncnc(Nc4ccc(O)c(F)c4)c3c2s1 = 0.94

----------
Recorded log10 of IC50 for the following compounds
experimental-target: UniProtKB Q9Y463
protocol-description: DYRK1B kinase assay (HotSpot, Reaction Biology)
Assay type: biochemical
measurement-conditions: purified recombinant kinase, 10 μM ATP, room temperature 120 min
Please keep in mind that the values are log10 of IC50 expressed in nM.

>>> quantitative_readout("NC(=O)c1nc2ccc3ncnc(Nc4ccc(Cl)cc4Cl)c3c2s1")
1.64
>>> quantitative_readout("C#Cc1cccc(Nc2ncnc3ccc4nc(C(=N)OC)sc4c23)c1")
1.67
>>> quantitative_readout("COC(=O)c1nc2ccc3ncnc(Nc4ccc(Cl)cc4Cl)c3c2s1")
0.89
>>> quantitative_readout("COC(=N)c1nc2ccc3ncnc(Nc4ccccc4)c3c2s1")
0.54
>>> quantitative_readout("COC(=N)c1nc2ccc3ncnc(Nc4ccc(Cl)cc4Cl)c3c2s1")
-0.55
>>> quantitative_readout("COC(=N)c1nc2ccc3ncnc(Nc4ccc(C(F)(F)F)cc4)c3c2s1")
1.40
>>> quantitative_readout("COC(=N)c1nc2ccc3ncnc(Nc4ccc(OC)cc4OC)c3c2s1")
1.05
>>> quantitative_readout("COC(=N)c1nc2ccc3ncnc(Nc4ccc(N(C)C)cc4)c3c2s1")
1.81
>>> quantitative_readout("COC(=N)c1nc2ccc3ncnc(Nc4cccc(Cl)c4)c3c2s1")
1.27
>>> quantitative_readout("CC(C)(C)CNc1ncnc2ccc(-c3ccc4c(c3)OCO4)cc12 [NCGC-00189310, reference compound]")
1.31

Then there is this compound:
// log10 of IC50 (UniProtKB Q9Y463) for COC(=N)c1nc2ccc3ncnc(Nc4ccc(O)c(F)c4)c3c2s1 = 1.04
